test system: Influenza A virus; test: Antiviral activity against Influenza A virus (A/Puerto Rico/8/34(H1N1)) infected in MDCK cells expressing M2 V27T/S31N mutant after overnight incubation by fluorescence-based miniplaque assay; assay type: functional, organism-based, A/Puerto Rico/8/1934(H1N1)
Entries annotated with measured EC50
Metric: EC50 (nM)

> print(dat)
                                   molecule  measurement.qualifier  value
1  NC1(c2ccccc2)C2CC3CC(C2)CC1C3 (centres undefined)                      <    300
2  CC1(N)C2CC3CC(C2)CC1C3 (centres undefined)                      =    400
3  CC(N)C12CC3CC(CC(C3)C1)C2 (centres undefined)                      =   3300
4  CC(C)CC1(N)C2CC3CC(C2)CC1C3 (centres undefined)                      =    300
